- ASSAY TARGET: T1, human TREM2 (triggering receptor expressed on myeloid cells 2) (human) (UniProt Q9NZC2)
- T1 sequence (looked up): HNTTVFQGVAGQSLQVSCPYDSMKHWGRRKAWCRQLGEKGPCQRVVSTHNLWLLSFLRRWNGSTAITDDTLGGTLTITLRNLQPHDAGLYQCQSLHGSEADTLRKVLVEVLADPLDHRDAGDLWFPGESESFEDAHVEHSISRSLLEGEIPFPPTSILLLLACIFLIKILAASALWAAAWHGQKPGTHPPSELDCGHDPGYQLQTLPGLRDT
- ASSAY INFO: 2nd screen, 2 nM Ab
Below, each entry is listed with its recorded Binding Signal (fold over 6E7 parental antibody).
Numbers only here, please. The scale is fold.

Some binders with known Binding Signal (fold over 6E7 parental antibody) results, for comparison:
6E7 antibody affinity modulation variant V51 (antibody, V domains shown) VH: EVQLVQSGAEVKKPGESLKISCKGSGYSFTSYWIAWVRQMPGKGLEWMGIIYPGDSDVRYSPSFQGQVTISADKSISTAYLQWSSLKASDTAMYFCARGRTFYYDSSDYFDNWGQGTLVTVSS VL: DIQMTQSPSSVSASVGDRVTITCRASQGISSWLAWYQQKPGKAPKLLIYAASSRQNGVPSRFSGSGSGTDFTLTISSLQPEDFATYFCQQADSFPRTFGQGTKLEIK: 1.83
6E7 antibody affinity modulation variant V40 (antibody, V domains shown) VH: EVQLVQSGAEVKKPGESLKISCKGSGYSFGSYWIAWVRQMPGKGLEWMGIIYPGDSDVRYSPSFQGQVTISADKSISTAYLQWSSLKASDTAMYFCARQRTFYYDSSDYSDYWGQGTLVTVSS VL: DIQMTQSPSSVSASVGDRVTITCRASQGISSWLAWYQQKPGKAPKLLIYAASSLQLGVPSRFSGSGSGTDFTLTISSLQPEDFATYFCQQADRFPRTFGQGTKLEIK: 3.41

# context switch: different binder, same Binding Signal (fold over 6E7 parental antibody)
// query Tell me the measured Binding Signal (fold over 6E7 parental antibody) of 6E7 antibody affinity modulation variant V26 (antibody, V domains shown) VH: EVQLVQSGAEVKKPGESLKISCKGSGYSFTSYWIGWVRQMPGKGLEWMGTIYPGDSDTRYSPSFQGQVTISADKSISTAYLQWSSLKASDTAMYFCARQRTMYYDSSDYFDAWGQGTLVTVSS VL: DIQMTQSPSSVSASVGDRVTITCRASQGISSWLAWYQQKPGKAPKLLIYAASSLQRGVPSRFSGSGSGTDFTLTISSLQPEDFATYFCQQADSYPRTFGQGTKLEIK , please.
// result 2.83
